Reference source: the supplement of paper PMC7125110

B1: glmS ribozyme (parent)
chain: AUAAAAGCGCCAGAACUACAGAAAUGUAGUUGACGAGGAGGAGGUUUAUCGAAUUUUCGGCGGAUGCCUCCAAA

Variants of: B1
Assay: kcat; higher = faster cleavage; RNA array
Settings: with glucosamine-6-phosphate
This sample holds only a part of the variants without activity.
Returns one of Condition met or Condition not met; Condition met when kcat is >= 0.0008 s⁻¹.

{"Variant Designation": "A48U U65G", "Assigned Label": "Condition not met"}
{"Variant Designation": "U47A U56G", "Assigned Label": "Condition met"}

Enquiry: # check: kcat of G40A A42G is greater than or equal to 0.0008 s⁻¹
Return: Condition met

Enquiry: # check: kcat of A14G A52C is greater than or equal to 0.0008 s⁻¹
Return: Condition not met

Enquiry: # check: kcat of G41C U56G is greater than or equal to 0.0008 s⁻¹
Return: Condition not met

Enquiry: # check: kcat of U49A C70G is greater than or equal to 0.0008 s⁻¹
Return: Condition not met

Enquiry: # check: kcat of C16G G59A C71G is greater than or equal to 0.0008 s⁻¹
Return: Condition not met
